# measuredOn: Leucine aminopeptidase (Plasmodium falciparum (isolate 3D7))
# assayOverview: P. falciparum M17LAP inhibitors, primary screen, biochemical, fluorogenic H-Leu-NHMec substrate, 1536-well (AID 1619);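 further: plate controls were full reaction with DMSO carrier for no effect and no enzyme background for full effect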
# condition: recombinant M17LAP, H-Leu-NHMec fluorogenic kinetic assay; at 30 µM; active compounds read high
Hit rate of the full screen: of about 220,000 compounds, about 830 (0.38%) were called active. Only a sample is shown. Measured potencies and affinities stand elsewhere.
reportedProperty: inhibition (%)

>>> observedvalue("O=C(CN1C(=O)c2ccccc2S1(=O)=O)Nc1cccnc1")
27.9
>>> observedvalue("Cc1cc(C)nc(NS(=O)(=O)c2ccc(NC(=O)CN3C(=O)c4ccccc4C3=O)cc2)n1")
8.34
>>> observedvalue("CC(=O)Nc1scc(C)c1-c1nc2ccccc2s1")
-9.4
>>> observedvalue("Cc1csc(NC(=O)CSCC(=O)O)c1-c1nc2ccccc2s1")
1.7
>>> observedvalue("COc1cc(NS(=O)(=O)c2ccc(NC(=O)CN3C(=O)c4ccccc4C3=O)cc2)nc(OC)n1")
45.7

* * *

We begin with a simple list: items and their reported inhibition.
# measuredOn: Leucine aminopeptidase (Plasmodium falciparum (isolate 3D7))
# assayOverview: P. falciparum M17LAP inhibitors, primary screen, biochemical, fluorogenic H-Leu-NHMec substrate, 1536-well (AID 1619);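 further: plate controls were full reaction with DMSO carrier for no effect and no enzyme background for full effect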
# condition: recombinant M17LAP, H-Leu-NHMec fluorogenic kinetic assay; at 30 µM; active compounds read high
The whole screen tested about 220,000 compounds, of which about 830 (0.38%) were called active. These entries were drawn from the full list. Potency and affinity values are given separately.
reportedProperty: inhibition

>>> observedvalue("C/C(=N\\NC(=O)c1ccc(CN2CCOCC2)cc1)c1ccc(NC(=O)c2ccccc2)cc1")
"4.99% (inactive)"
>>> observedvalue("O=C(c1ccccc1F)N(Cc1ccc2c(c1)OCO2)Cc1cc2cc3c(cc2n2nnnc12)OCO3")
"3.97% (inactive)"
>>> observedvalue("CC(C)(C)NC(=O)CN(Cc1ccc(F)cc1)C(=O)Cn1nnc(-c2ccc(F)cc2)n1")
"2.63% (inactive)"
>>> observedvalue("Cc1cccc(C(=O)NC(=S)NNC(=O)c2ccc(Cl)cc2)c1")
"86.2% (inactive)"
>>> observedvalue("CC(=O)NC(C(=O)OCC(=O)N(c1ccccc1)c1ccccc1)C(C)C (stereo unspecified)")
"0.51% (inactive)"
>>> observedvalue("Cc1ccc(C(=O)NC(=S)NNC(=O)COc2ccccc2C)cc1")
"-0.9% (inactive)"
>>> observedvalue("O=C(CSc1nc(O)c(-c2ccccc2)c(=O)[nH]1)N1CCOCC1")
"12.3% (inactive)"
>>> observedvalue("C/C(=N\\NC(N)=S)C1(C)CC2(CC(C)(C)OC2=O)C(=O)O1 (stereo unspecified)")
"-1.04% (inactive)"
>>> observedvalue("O=[N+]([O-])c1ccc2c(c1)/C(=N\\O)c1ccccc1-2")
"2.49% (inactive)"
>>> observedvalue("COCCCNC(=O)c1ccccc1NS(C)(=O)=O")
"-1.32% (inactive)"
>>> observedvalue("COc1ccccc1CC(=O)NNC(=O)c1cccs1")
"-2.69% (inactive)"
>>> observedvalue("O=C(NC(=S)NNC(=O)c1ccccc1F)c1cccnc1")
"5.36% (inactive)"
>>> observedvalue("CC(=O)Nc1ccc(Sc2ccccc2C(=O)O)cc1")
"6.89% (inactive)"
>>> observedvalue("Cc1ccc(C(=O)NC(Cc2c[nH]c3ccccc23)C(=O)O)cc1 (stereo unspecified)")
"17.6% (inactive)"
>>> observedvalue("CCOc1ccc(S(=O)(=O)NCCCN2CCOCC2)cc1")
"-8.49% (inactive)"
>>> observedvalue("O=C(c1ccc([N+](=O)[O-])cc1)N1CCN(C(=O)c2ccco2)CC1")
"2.53% (inactive)"
>>> observedvalue("Cc1sc(NC(=O)c2cccc([N+](=O)[O-])c2)c(C(N)=O)c1-c1ccc(C(C)(C)C)cc1")
"6.91% (inactive)"
>>> observedvalue("C=CCn1c(COC)nnc1SCC(=O)c1ccc(F)cc1")
"-1.58% (inactive)"
>>> observedvalue("Cc1cccc(OC(=O)C2C(c3ccccc3)C(C(=O)O)C2c2ccccc2)c1 (stereo unspecified)")
"33.4% (inactive)"
>>> observedvalue("CCOc1ccccc1Nc1nnc(SCC(=O)Nc2cc(C)on2)s1")
"-0.81% (inactive)"
>>> observedvalue("CCOc1ccccc1OCC(=O)Nc1nnc(COC)s1")
"-14% (inactive)"
